tissue uptake at 1 h values by entry
- experiment description: Biodistribution of 177Lu-labeled αMSH analogues in mice bearing B16F10 mouse melanoma
- Type: in vivo, C57BL/6J mice
- applied conditions: mouse, blood, iv, total radioactivity; 1 h p.i., C57BL/6J mice, B16F10 melanoma; read-out: Biodistribution, Blood

compound: CCCC[C@H](NC(=O)CN1CCC(NC(=O)[C@H](CCCCNC(=O)CN2CCN(CC(=O)O)CCN(CC(=O)O)CCN(CC(=O)O)CC2)NC(=O)[C@H](CCC(=O)O)NC(=O)CCCc2ccc(I)cc2)CC1)C(=O)N[C@H]1CC(=O)NCCCC[C@@H](C(N)=O)NC(=O)[C@H](Cc2c[nH]c3ccccc23)NC(=O)[C@H](CCCNC(=N)N)NC(=O)[C@@H](Cc2ccccc2)NC(=O)[C@H](Cc2c[nH]cn2)NC1=O [^177Lu-labeled CCZ01082, metal not drawn]
tissue uptake at 1 h (%ID/g): 8.32
//
compound: CCCC[C@H](NC(=O)CN1CCC(NC(=O)[C@H](CCCCNC(=O)CN2CCN(CC(=O)O)CCN(CC(=O)O)CCN(CC(=O)O)CC2)NC(=O)[C@H](CCC(=O)O)NC(=O)CCCc2ccc(I)cc2)CC1)C(=O)N[C@H]1CC(=O)NCCCC[C@@H](C(N)=O)N(C)C(=O)[C@H](Cc2c[nH]c3ccccc23)N(C)C(=O)[C@H](CCCNC(=N)N)N(C)C(=O)[C@@H](Cc2ccccc2)NC(=O)[C@H](Cc2c[nH]cn2)N(C)C1=O [^177Lu-labeled CCZ01088, metal not drawn]
tissue uptake at 1 h (%ID/g): 7.41
//
compound: CCCC[C@H](NC(=O)CN1CCC(NC(=O)CN2CCN(CC(=O)O)CCN(CC(=O)O)CCN(CC(=O)O)CC2)CC1)C(=O)N[C@H]1CC(=O)NCCCC[C@@H](C(N)=O)N(C)C(=O)[C@H](Cc2c[nH]c3ccccc23)N(C)C(=O)[C@H](CCCNC(=N)N)N(C)C(=O)[C@@H](Cc2ccccc2)NC(=O)[C@H](Cc2c[nH]cn2)N(C)C1=O [^177Lu-labeled CCZ01099, metal not drawn]
tissue uptake at 1 h (%ID/g): 0.48
//
compound: CCCC[C@H](NC(=O)CN1CCC(NC(=O)[C@H](CCCCNC(=O)CN2CCN(CC(=O)O)CCN(CC(=O)O)CCN(CC(=O)O)CC2)NC(=O)[C@H](CCC(=O)O)NC(=O)CCCc2ccc(I)cc2)CC1)C(=O)N[C@H]1CC(=O)NCCCC[C@@H](C(N)=O)N(C)C(=O)[C@H](Cc2c[nH]c3ccccc23)NC(=O)[C@H](CCCNC(=N)N)N(C)C(=O)[C@@H](Cc2ccccc2)NC(=O)[C@H](Cc2c[nH]cn2)NC1=O [^177Lu-labeled CCZ01118, metal not drawn]
tissue uptake at 1 h (%ID/g): 6.87
//
compound: CCCC[C@H](NC(=O)CN1CCC(NC(=O)CN2CCN(CC(=O)O)CCN(CC(=O)O)CCN(CC(=O)O)CC2)CC1)C(=O)N[C@H]1CC(=O)NCCCC[C@@H](C(N)=O)N(C)C(=O)[C@H](Cc2c[nH]c3ccccc23)NC(=O)[C@H](CCCNC(=N)N)N(C)C(=O)[C@@H](Cc2ccccc2)NC(=O)[C@H](Cc2c[nH]cn2)NC1=O [^177Lu-labeled CCZ01106, metal not drawn]
tissue uptake at 1 h (%ID/g): 0.49
